System: Human Peripheral Blood Mononuclear Cells (PBMC)
Experiment: Immunosuppression of selected peptides: Con A stimulated lymphocyte proliferation (EdU incorporation)
Type: cell-based
Settings: peptide concentration of 50 uM; Con A (5 ug/mL); 72 hrs; relative to Con A stimulated cells without peptide (FIG. 10)
measure name: inhibition of lymphocyte proliferation (%)

sequence_entry="LQARVLAVERYLKDQQLLRIWGC [HIV G19R]" measure_name="inhibition of lymphocyte proliferation" readout_number=15
sequence_entry="LQNRRGLDLLFLKEGGLC (HIV) [CKS-17, reference compound]" measure_name="inhibition of lymphocyte proliferation" readout_number=93
sequence_entry="LQARILAVETLIQNQQLLNLWGC [HIV M/O chimera]" measure_name="inhibition of lymphocyte proliferation" readout_number=22
sequence_entry="LQARVLAVERYLKDQQLLGIWGC [CS-3]" measure_name="inhibition of lymphocyte proliferation" readout_number=82

Values were extracted from patent US20110305749A1.
